target: protein farnesyltransferase (Rattus norvegicus, UniProt Q02293+Q04631); construct: The enzyme is purified according to Reiss, Y., et al., Cell, 62: 81-88 (1990), utilizing steps one through three; from tissue; host or cells: rat brain; assay: Inhibition of farnesyltransferase (scintillation proximity assay, rat brain enzyme, biotin-K Ras B fragment substrate); type: biochemical; conditions: 1 × 10^-7 M (Table 3)
Sequence (Q02293 whole entry, the tested form may be a part, one chain of several): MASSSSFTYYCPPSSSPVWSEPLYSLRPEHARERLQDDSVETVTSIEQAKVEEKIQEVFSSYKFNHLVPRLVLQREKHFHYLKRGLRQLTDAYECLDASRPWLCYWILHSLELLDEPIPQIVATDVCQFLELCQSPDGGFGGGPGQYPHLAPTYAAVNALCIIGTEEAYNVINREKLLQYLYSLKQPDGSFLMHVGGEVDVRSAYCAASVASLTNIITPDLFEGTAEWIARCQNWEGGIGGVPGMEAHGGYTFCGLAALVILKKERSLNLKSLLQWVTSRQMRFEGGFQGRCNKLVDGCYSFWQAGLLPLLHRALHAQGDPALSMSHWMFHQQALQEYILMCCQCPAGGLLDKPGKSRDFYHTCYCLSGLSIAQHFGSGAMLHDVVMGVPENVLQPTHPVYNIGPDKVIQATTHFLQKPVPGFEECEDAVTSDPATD
Classification field: enter 1 (yes) for % inhibition of farnesyltransferase at 1 × 10^-7 M values not below 90%, 0 (no) for values below it.

Solved cases (5 shown):
# SUBSTANCE SMILES, LABEL
records = [
    ("CSCC[C@H](NC(=O)c1ccc(COCCc2ccco2)cc1-c1ccccc1C)C(=O)[O-].[Li+]", "0 (no)"),
    ("CCSC[C@H](CC1CCCCC1)N(Cc1ccc(C(=O)N[C@@H](CCSC)C(=O)O)c(-c2ccccc2C)c1)S(=O)(=O)c1ccccc1", "0 (no)"),
    ("CSCC[C@H](NC(=O)c1ccc(CSc2nc3cc(C)ccc3[nH]2)cc1-c1ccccc1C)C(=O)O", "0 (no)"),
    ("CSCC[C@H](NC(=O)c1ccc(CN(CCC2CCCCC2)S(C)(=O)=O)cc1-c1ccccc1C)C(=O)O", "1 (yes)"),
    ("CSCC[C@H](NC(=O)c1ccc(COCc2ccc(-c3ccc(Cl)cc3)o2)cc1-c1ccccc1C)C(=O)NS(C)(=O)=O", "0 (no)"),
]

Q: Could you please find out whether "CSCC[C@H](NC(=O)c1ccc(COCc2ccc(Br)o2)cc1-c1ccccc1C)C(=O)[O-].[Li+]" has % inhibition of farnesyltransferase at 1 × 10^-7 M that meets 90% or exceeds it?
A: 1 (yes)

Q: Could you please find out whether "CSCC[C@H](NC(=O)c1ccc(CNC(CC2CCCCC2)CC2CCCCC2)cc1-c1ccccc1C)C(=O)O" has % inhibition of farnesyltransferase at 1 × 10^-7 M that meets 90% or exceeds it?
A: 1 (yes)

Q: Could you please find out whether "CSCC[C@H](NC(=O)c1ccc(CSCCc2ccccc2)cc1-c1ccccc1C)C(=O)[O-].[Li+]" has % inhibition of farnesyltransferase at 1 × 10^-7 M that meets 90% or exceeds it?
A: 1 (yes)

---

molecular target: protein farnesyltransferase (Rattus norvegicus, UniProt Q02293+Q04631); construct: The enzyme is purified according to Reiss, Y., et al., Cell, 62: 81-88 (1990), utilizing steps one through three; from tissue; host or cells: rat brain; test: Inhibition of farnesyltransferase (scintillation proximity assay, rat brain enzyme, biotin-K Ras B fragment substrate); assay type: biochemical; settings: 1 × 10^-5 M (Table 1)
OBSERVABLE: % inhibition of farnesyltransferase at 1 × 10^-5 M (%)
The reply should contain only the number, in %.

Some solved entries appear below for comparison.
# MOLECULE, TARGET, EXPERIMENTAL RESULT
rows = [
    ("CSCC[C@H](NC(=O)c1ccc(CNc2cc(C(=O)O)cc(C(=O)O)c2)cc1-c1ccccc1)C(=O)O [Example 710]", "protein farnesyltransferase (Rattus norvegicus, UniProt Q02293+Q04631)", 45),
    ("CSCC[C@H](NC(=O)c1ccc(CNc2ccc(O)cc2)cc1-c1ccccc1)C(=O)O [Example 689]", "protein farnesyltransferase (Rattus norvegicus, UniProt Q02293+Q04631)", 73),
    ("CSCC[C@H](NC(=O)c1ccc(CNc2cccc(O)c2)cc1-c1ccccc1)C(=O)O [Example 676]", "protein farnesyltransferase (Rattus norvegicus, UniProt Q02293+Q04631)", 76),
    ("CSCC[C@H](NC(=O)c1ccc(CNc2cccc(C)c2)cc1-c1ccccc1)C(=O)O [Example 674]", "protein farnesyltransferase (Rattus norvegicus, UniProt Q02293+Q04631)", 40),
    ("CSCC[C@H](NC(=O)c1ccc(CNc2ccc(Oc3ccccc3)cc2)cc1-c1ccccc1)C(=O)O [Example 701]", "protein farnesyltransferase (Rattus norvegicus, UniProt Q02293+Q04631)", 64),
    ("CSCC[C@H](NC(=O)c1ccc(CNCCCCc2ccccc2)cc1-c1ccccc1)C(=O)O [Example 718]", "protein farnesyltransferase (Rattus norvegicus, UniProt Q02293+Q04631)", 40),
    ("CSCC[C@H](NC(=O)c1ccc(CNCC(C)(C)CN(C)C)cc1-c1ccccc1)C(=O)O [Example 639]", "protein farnesyltransferase (Rattus norvegicus, UniProt Q02293+Q04631)", 44),
]

Here is the next item to consider.
// molecule CSCC[C@H](NC(=O)c1ccc(CNc2cc(C)on2)cc1-c1ccccc1)C(=O)O [Example 372] , assay protein farnesyltransferase (Rattus norvegicus, UniProt Q02293+Q04631), % inhibition of farnesyltransferase at 1 × 10^-5 M value: 69
